# target-of-assay: T1, hen egg lysozyme (Gallus gallus (hen), UniProt P00698)
# T1 construct: hen egg lysozyme (HEL), lysozyme C of the chicken; No supplier is named for HEL; also called HEL; antigen
# T1 sequence (P00698 19-147): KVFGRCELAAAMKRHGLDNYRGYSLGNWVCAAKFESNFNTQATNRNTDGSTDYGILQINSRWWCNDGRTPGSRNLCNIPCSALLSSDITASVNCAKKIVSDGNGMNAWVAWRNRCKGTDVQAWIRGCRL
# assay-info: other fluorescence titration; de-quenching dose response: 10 ng mini Q-body in 250 μL PBST in a quartz cell; antigen added stepwise (0, 1 nM to 10 μM) at 5 min intervals; EC50 by 4-parameter logistic fit
# measurement-setup: both partners purified

| binder | EC50 |
| --- | --- |
| C3 mini Q-body labeled with TAMRA-C6(6) (VHH, as the VH of m1; Same chain as m1 with the dye on the Cys-tag; not shown: His-tag, C-terminal, kept) VHH: EVQLLESGGGLVQPGGSLRLSCAASGFRDSDEDMGWVRQAPGKGLEWVSSIYGESGSTYYADSVKGRFTISRDNSKNTLYLQMNSLRAEDTAVYYCASYNYYYNVFDYWGQGTLVTVSS | 362 nM |
| C3 mini Q-body labeled with TAMRA-C6(5) (VHH, as the VH of m1; Same chain as m1 with the dye on the Cys-tag; not shown: His-tag, C-terminal, kept) VHH: EVQLLESGGGLVQPGGSLRLSCAASGFRDSDEDMGWVRQAPGKGLEWVSSIYGESGSTYYADSVKGRFTISRDNSKNTLYLQMNSLRAEDTAVYYCASYNYYYNVFDYWGQGTLVTVSS | 401 nM |
| C3 mini Q-body labeled with TAMRA-C2 (VHH, as the VH of m1; Same chain as m1 with the dye on the Cys-tag; not shown: His-tag, C-terminal, kept) VHH: EVQLLESGGGLVQPGGSLRLSCAASGFRDSDEDMGWVRQAPGKGLEWVSSIYGESGSTYYADSVKGRFTISRDNSKNTLYLQMNSLRAEDTAVYYCASYNYYYNVFDYWGQGTLVTVSS | 50 nM |
